Tested on: RAW264.7
Test: Antiinflammatory activity in mouse RAW264.7 cells assessed as inhibition of LPS-induced NO production treated 2 hrs before LPS challenge measured after 24 hrs
Format: functional, cell-based
Conditions: Mus musculus, RAW264.7; read-out: IC50
quantity-measured: IC50

Report IC50 for every entry below.
1. COc1ccc([C@@H]2c3c(OC)cc(OC)cc3/C(=C/c3ccc(Cl)cc3)[C@H]2c2cc(OC)cc(OC)c2)cc1
2. COc1ccc(CSC2c3cc(OC)cc(OC)c3[C@@H](c3ccccc3)[C@@H]2c2cc(OC)cc(OC)c2)cc1 (some centres undefined)
3. COc1cc(OC)cc([C@@H]2C(=O)c3cc(OC)cc(OC)c3[C@H]2c2ccccc2)c1
4. COc1ccc([C@@H]2c3c(OC)cc(OC)cc3C(SCc3ccccc3)[C@H]2c2cc(OC)cc(OC)c2)cc1 (some centres undefined)
5. COc1ccc([C@@H]2c3c(OC)cc(OC)cc3C(SCc3ccc(C)cc3)[C@H]2c2cc(OC)cc(OC)c2)cc1 (some centres undefined)

*A*
> 200 µM
> 200 µM
27.1 µM
> 200 µM
> 200 µM
